Catalogue of molecules with associated activity, negative = inhibition
ASSAYED TARGET: Cytochrome P450 2C19 (Homo sapiens) (UniProt P33261)
Sequence (P33261 whole entry, looked up): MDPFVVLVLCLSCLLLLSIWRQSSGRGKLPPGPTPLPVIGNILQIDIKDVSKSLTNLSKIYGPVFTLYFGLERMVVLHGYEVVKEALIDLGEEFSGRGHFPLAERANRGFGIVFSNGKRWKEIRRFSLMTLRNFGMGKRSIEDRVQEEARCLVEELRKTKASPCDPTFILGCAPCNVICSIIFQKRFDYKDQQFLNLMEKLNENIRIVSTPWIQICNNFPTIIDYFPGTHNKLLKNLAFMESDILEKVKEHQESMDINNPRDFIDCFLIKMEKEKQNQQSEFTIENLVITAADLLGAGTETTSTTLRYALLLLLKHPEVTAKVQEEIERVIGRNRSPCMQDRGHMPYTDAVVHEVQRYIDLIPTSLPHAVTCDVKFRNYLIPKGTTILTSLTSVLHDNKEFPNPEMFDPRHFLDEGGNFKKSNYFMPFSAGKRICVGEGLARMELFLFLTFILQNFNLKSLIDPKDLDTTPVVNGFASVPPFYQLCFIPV
ASSAY COMMENT: Cytochrome panel assay with activity outcomes; note: % is set by controls: 0 for no effect and ±100 for the full control effect
TEST PARAMETERS: recombinant CYP, pro-luciferin dealkylation, luminescence, p450-cyp2c19; series mostly up to 57.1 µM
Protocol: The P450 gene superfamily is involved in the metabolism and clearance of xenobiotics. This assay used various human CYP P450 isozymes to measure the dealkylation of various pro-luciferin substrates to luciferin. The luciferin is then measured by luminescence after the addition of a luciferase detection reagent. […] Inhibitors and some substrates limit the production of luciferin, and decrease measured luminescence. […] 8, Detection, 1 sec, ViewLux luminescent read […]
The whole screen tested about 16,000 compounds, of which about 5,800 (36%) were called active. Roughly 23% stayed inconclusive and do not appear here. The list shows a part of the results.

*Q* Please look at OCCN(CO)CO and tell me its recorded activity, negative = inhibition on Cytochrome P450 2C19 (Homo sapiens) (UniProt P33261).
*A* 0.957% [at 11.4 µM] (inactive)

*Q* Please look at C[N+](C)(C)c1ccc([C@H](N)C(=O)O)cc1 and tell me its recorded activity, negative = inhibition on Cytochrome P450 2C19 (Homo sapiens) (UniProt P33261).
*A* -19.4% [at 11.4 µM] (inactive)

*Q* Please look at O=C(O)/C(=C\c1ccccc1)c1ccccc1 and tell me its recorded activity, negative = inhibition on Cytochrome P450 2C19 (Homo sapiens) (UniProt P33261).
*A* 11.9% [at 11.4 µM] (inactive)

*Q* Please look at Nc1nc(N)nc(CC(=O)O)n1 and tell me its recorded activity, negative = inhibition on Cytochrome P450 2C19 (Homo sapiens) (UniProt P33261).
*A* -6.24% [at 11.4 µM] (inactive)

*Q* Please look at C[C@@]1(CCOCc2ccccc2)NC(=O)NC1=O and tell me its recorded activity, negative = inhibition on Cytochrome P450 2C19 (Homo sapiens) (UniProt P33261).
*A* 0.432% [at 11.4 µM] (inactive)

*Q* Please look at O=C(CSc1nc2ccccc2s1)c1sc2sc3ccccc3[n+]2c1O and tell me its recorded activity, negative = inhibition on Cytochrome P450 2C19 (Homo sapiens) (UniProt P33261).
*A* -17.6% [at 11.4 µM] (inactive)

*Q* Please look at C#CCCCO/N=C1/C[C@@H](O)[C@@H](O)[C@@H]2[C@@H]3C(=O)N(C[C@@H]4CCCO4)C(=O)[C@H]3CC[C@@H]12 and tell me its recorded activity, negative = inhibition on Cytochrome P450 2C19 (Homo sapiens) (UniProt P33261).
*A* 1.94% [at 11.4 µM] (inactive)

*Q* Please look at CC1(C)O[C@H]2[C@@H](c3[nH]nc4c(=O)[nH]c(=O)[nH]c34)OC[C@H]2O1 and tell me its recorded activity, negative = inhibition on Cytochrome P450 2C19 (Homo sapiens) (UniProt P33261).
*A* 9.71% [at 11.4 µM] (inactive)

*Q* Please look at COC(=O)C/C=C1\c2ccccc2[C@H](OC)[C@H]1C and tell me its recorded activity, negative = inhibition on Cytochrome P450 2C19 (Homo sapiens) (UniProt P33261).
*A* 23.9% [at 11.4 µM] (inactive)

*Q* Please look at O=C(O)C[C@@H](C(=O)O)C1c2ccccc2-c2ccccc21 and tell me its recorded activity, negative = inhibition on Cytochrome P450 2C19 (Homo sapiens) (UniProt P33261).
*A* 26.9% [at 11.4 µM] (inactive)

***
*Q* Please look at Cc1cc2c(nc1C)CCCCN2C[C@H](O)CN1CCCc2nc(-c3ccc(Br)cc3)ccc21 and tell me its recorded activity, negative = inhibition on Cytochrome P450 2C19 (Homo sapiens) (UniProt P33261).
*A* -10.8% [at 11.4 µM] (inactive)
